Molecular target: T1, KLHL20 Kelch domain (human, UniProt Q9Y2M5 317-603)
T1 sequence (looked up): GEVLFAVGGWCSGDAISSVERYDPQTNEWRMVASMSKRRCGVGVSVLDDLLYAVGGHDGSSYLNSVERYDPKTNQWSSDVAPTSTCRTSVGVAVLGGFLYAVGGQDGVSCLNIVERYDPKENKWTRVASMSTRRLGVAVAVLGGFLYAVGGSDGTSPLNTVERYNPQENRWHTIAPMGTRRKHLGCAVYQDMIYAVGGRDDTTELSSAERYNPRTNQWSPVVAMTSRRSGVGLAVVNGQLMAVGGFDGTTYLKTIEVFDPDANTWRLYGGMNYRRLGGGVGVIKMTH
Assay: fluorescence polarisation
*1 amine or outer side, *2 acyl side, *3 side chain or, on linkers, in order; H or OH if unused. Bridges are numbered along the chain shown (N, C = ends). The star is where a group is joined. FITC = O=C1OC2(c3ccc(O)cc3Oc3cc(O)ccc32)c2ccc(NC(=S)*)cc21; mXylylene = c1cc(C[*:1])cc(C[*:2])c1
ATTRIBUTE MEASURED: Kd

Below, each entry is followed by its recorded Kd result.
BINDER | Kd
{FITC}-CPDLVC-NH2 (linker 1-6 via mXylylene) [FITC-labeled macrocycle CPDLVC] | ~600 nM
{FITC}-CPDLC-NH2 (linker 1-5 via mXylylene) [FITC-labeled BTR2000 (macrocycle CPDLC)] | ~600 nM

Attention now shifts to the item below.
IN: Please list Kd recorded for the binder {FITC}-LPDLV-NH2 [FITC-labeled linear LPDLV peptide]
OUT: > 5000 nM
